Hi! I'm sharing some Non-toxic Compound / Toxic Compound results obtained with Fa2N-4 cells and primary human hepatocytes.

compound	Non-toxic Compound / Toxic Compound
CC1=CC(=O)c2ccccc2C1=O [Menadione]	Toxic
c1ccc2c(c1)cc1ccc3cccc4ccc2c1c34 [Benzo[a]pyrene]	Toxic
Cc1c(C)c2c(c(C)c1O)CCC(C)(COc1ccc(CC3SC(=O)NC3=O)cc1)O2 (stereo not shown) [Troglitazone]	Toxic

====

Hi! I'm sharing some Cellular Response (Fa2N-4 cells compared with primary human hepatocytes) results obtained with Fa2N-4 cells and primary human hepatocytes.

In the examples that follow, each entry is paired with its recorded Cellular Response (Fa2N-4 cells compared with primary human hepatocytes).
compound	measured.target	value.measured
COc1ccc2[nH]c([S+]([O-])Cc3ncc(C)c(OC)c3C)nc2c1 (centres unmarked)	Fa2N-4 cells and primary human hepatocytes	Same
Cc1c(OCC(F)(F)F)ccnc1C[S+]([O-])c1nc2ccccc2[nH]1 (centres unmarked)	Fa2N-4 cells and primary human hepatocytes	Same
O=C1NC(=O)C(c2ccccc2)(c2ccccc2)N1	Fa2N-4 cells and primary human hepatocytes	Same
CN(Cc1cnc2nc(N)nc(N)c2n1)c1ccc(C(=O)N[C@@H](CCC(=O)O)C(=O)O)cc1 [Methotrexate]	Fa2N-4 cells and primary human hepatocytes	Same

Looking for the measured Cellular Response (Fa2N-4 cells compared with primary human hepatocytes) of c1ccc2c(c1)cc1ccc3cccc4ccc2c1c34 [Benzo[a]pyrene] , can you help?
Different

Entry NC(=O)N1c2ccccc2C=Cc2ccccc21 [Carbamazepine] please
Same

Entry O=C1Nc2ccc(Cl)cc2[C@@](C#CC2CC2)(C(F)(F)F)O1 please
Same

Entry NC(=O)OCC(COC(N)=O)c1ccccc1 [Felbamate] please
Same

====

Hi! I'm sharing some Cellular Response (Fa2N-4 cells compared with primary human hepatocytes) results obtained with Fa2N-4 cells and primary human hepatocytes.

In the examples that follow, each entry is paired with its recorded Cellular Response (Fa2N-4 cells compared with primary human hepatocytes).
compound	value.measured
Cc1c(C)c2c(c(C)c1O)CCC(C)(COc1ccc(CC3SC(=O)NC3=O)cc1)O2 (stereo not drawn)	Different
CC1(COc2ccc(CC3SC(=O)NC3=O)cc2)CCCCC1 (stereo not drawn)	Same
CO[C@H]1/C=C/O[C@@]2(C)Oc3c(C)c(O)c4c(O)c(c(/C=N/N5CCN(C)CC5)c(O)c4c3C2=O)NC(=O)/C(C)=C\C=C\[C@H](C)[C@H](O)[C@@H](C)[C@@H](O)[C@@H](C)[C@H](OC(C)=O)[C@@H]1C	Same
CC1=CC(=O)c2ccccc2C1=O	Different
CO[C@H]1C[C@H](O[C@H]2[C@H](C)[C@@H](O[C@@H]3O[C@H](C)C[C@H](N(C)C)[C@H]3OC(C)=O)[C@@H](C)C[C@@]3(CO3)C(=O)[C@H](C)[C@@H](OC(C)=O)[C@@H](C)[C@@H](C)OC(=O)[C@@H]2C)O[C@@H](C)[C@@H]1OC(C)=O	Same

Short answer please: Cellular Response (Fa2N-4 cells compared with primary human hepatocytes), Fa2N-4 cells and primary human hepatocytes, entry CCCN(CCC)S(=O)(=O)c1ccc(C(=O)O)cc1
Same
